- target.desc: Ghrelin receptor (Homo sapiens, UniProt Q92847)
- Sequence (Q92847 whole entry): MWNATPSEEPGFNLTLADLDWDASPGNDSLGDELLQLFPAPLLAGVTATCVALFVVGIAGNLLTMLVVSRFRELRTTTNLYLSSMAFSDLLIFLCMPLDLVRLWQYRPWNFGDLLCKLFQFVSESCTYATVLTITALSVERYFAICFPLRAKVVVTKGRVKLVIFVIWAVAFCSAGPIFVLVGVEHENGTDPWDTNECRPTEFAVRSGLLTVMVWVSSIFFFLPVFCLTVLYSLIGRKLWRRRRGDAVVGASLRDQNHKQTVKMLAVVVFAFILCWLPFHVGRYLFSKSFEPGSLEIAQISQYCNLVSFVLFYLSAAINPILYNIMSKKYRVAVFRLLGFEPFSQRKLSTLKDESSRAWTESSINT
- experimental.protocol: Receptor Selection and Amplification Technology (R-SAT) assay
- Format: cell-based
- Parameters: expressed in transfected cells; host or cells: NIH3T3
- experimental.context: read-out: RSAT Eff(%)

{"columns": ["compound", "target.desc", "Emax / %"],
 "data": [
  ["COc1cccc2c(C(=O)Cc3ccccc3)cn(CCCN3CCN(CCOc4ccccc4)CC3)c12", "Ghrelin receptor (Homo sapiens, UniProt Q92847)", 99],
  ["CC(=O)c1cn(CCCN2CCC3(CC2)CC(=O)c2ccccc2O3)c2c(Cl)cccc12", "Ghrelin receptor (Homo sapiens, UniProt Q92847)", 40],
  ["COc1cccc2c(C(=O)C3CC3)cn(CCCN3CCN(CCOc4ccc(Cl)c5ccccc45)CC3)c12", "Ghrelin receptor (Homo sapiens, UniProt Q92847)", 44],
  ["COc1cccc2c(C(=O)C3CC3)cn(CCCN3C4CCC3CC(CCc3ccc(Cl)cc3)C4)c12 (stereo not shown)", "Ghrelin receptor (Homo sapiens, UniProt Q92847)", 103],
  ["COc1ccc(C(=O)OC2C[C@H]3CC[C@@H](C2)N3CCCn2cc(C(C)=O)c3cccc(OC)c32)cc1OC (stereo partly shown)", "Ghrelin receptor (Homo sapiens, UniProt Q92847)", 104],
  ["COc1cccc2c(C(C)=O)cn(CC(C)CNCCOc3ccccc3)c12 (stereo not shown)", "Ghrelin receptor (Homo sapiens, UniProt Q92847)", 29],
  ["CC(=O)c1cn(CCCN2C3CCC2CC(CCc2ccc(Cl)cc2)C3)c2c(C)cccc12 (stereo not shown)", "Ghrelin receptor (Homo sapiens, UniProt Q92847)", 50],
  ["CC(=O)c1cn(CCCN2C3CCC2CC(Oc2ccc(Cl)cc2)C3)c2ccccc12 (stereo not shown)", "Ghrelin receptor (Homo sapiens, UniProt Q92847)", 108],
  ["COc1cccc2c(C(=O)NCC(C)C)cn(CCCNCCOc3ccccc3)c12", "Ghrelin receptor (Homo sapiens, UniProt Q92847)", 118],
  ["CC(=O)c1cn(CCCN2CCCC(Cc3ccccc3Cl)C2)c2c(Cl)cccc12 (stereo not shown)", "Ghrelin receptor (Homo sapiens, UniProt Q92847)", 47],
  ["COc1cccc2c(C(=O)NCc3cccc(Cl)c3)cn(CCCN3CCC(Oc4cccc(Cl)c4)CC3)c12", "Ghrelin receptor (Homo sapiens, UniProt Q92847)", 100],
  ["COc1cccc2c(C(=O)NCc3cccc(Cl)c3)cn(CCCN3C4CCC3CC(CCc3ccc(Cl)cc3)C4)c12 (stereo not shown)", "Ghrelin receptor (Homo sapiens, UniProt Q92847)", 127],
  ["COc1cccc2c(C(=O)c3ccccc3)cn(CCCN3CCC(Oc4ccc(Cl)cc4)CC3)c12", "Ghrelin receptor (Homo sapiens, UniProt Q92847)", 93],
  ["COc1cccc2c(C(C)=O)cn(CC(C)CN3CCCN(CCc4ccccc4)CC3)c12 (stereo not shown)", "Ghrelin receptor (Homo sapiens, UniProt Q92847)", 31],
  ["COc1cccc2c(C(=O)Cc3ccccc3)cn(CCCNC3Cc4ccccc4C3)c12", "Ghrelin receptor (Homo sapiens, UniProt Q92847)", 103],
  ["CC(=O)c1cn(CCCN2CCN(CCOc3ccc(Cl)cc3)CC2)c2c(C)cccc12", "Ghrelin receptor (Homo sapiens, UniProt Q92847)", 53],
  ["COc1cccc2c(C(=O)c3ccccc3)cn(CCCN3CCCC(Oc4ccc(Cl)cc4)C3)c12 (stereo not shown)", "Ghrelin receptor (Homo sapiens, UniProt Q92847)", 48],
  ["COc1cccc2c(C(=O)NCC(C)C)cn(CCCN3CCCN(Cc4ccccc4Cl)CC3)c12", "Ghrelin receptor (Homo sapiens, UniProt Q92847)", 100],
  ["COc1cccc2c(C(=O)NCc3cccc(C)c3)cn(CCCNC3Cc4ccccc4C3)c12", "Ghrelin receptor (Homo sapiens, UniProt Q92847)", 84]
]}
